# Target or test system: Recombinant human renin (Homo sapiens, UniProt P00797)
# Construct: isolate the active form (residues 67-406); made in house; host or cells: FreeStyle 293-F cells (transient expression of pcDNA3.1(+)/hREN)
# Sequence (P00797 67-406): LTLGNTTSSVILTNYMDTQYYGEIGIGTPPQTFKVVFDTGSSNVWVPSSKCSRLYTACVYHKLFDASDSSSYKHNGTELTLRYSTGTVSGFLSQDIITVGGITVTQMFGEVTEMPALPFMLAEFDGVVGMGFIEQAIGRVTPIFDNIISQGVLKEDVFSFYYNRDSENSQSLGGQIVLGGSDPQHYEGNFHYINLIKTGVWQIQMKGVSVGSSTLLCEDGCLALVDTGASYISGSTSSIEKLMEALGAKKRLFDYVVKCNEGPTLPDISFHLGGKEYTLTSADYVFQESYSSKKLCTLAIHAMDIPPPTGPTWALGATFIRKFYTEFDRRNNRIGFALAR
# Method description: In vitro enzymatic activity assay of renin inhibitors (fluorogenic peptide substrate)
# Format: biochemical
# Assay setup: read-out: IC50 of Exemplified Compounds Against Renin
pIC50: −log10 of the molar value.
Endpoint name: pIC50

[[record]]
compound = "COCCCn1c([C@@H]2CCCN(C(=O)[C@@H]3CN(C(=O)c4ccc(Cl)cc4)C[C@H]3N)C2)nc2ccccc21"
target_or_test_system = "Recombinant human renin (Homo sapiens, UniProt P00797)"
endpoint_name = "pIC50"
measured_result = "< 6.00"


Give pIC50 for each of the items listed below.
1. COCCCn1c([C@@H]2CCCN(C(=O)C[C@H](N)Cc3ccc(N4CCCC4=O)cc3)C2)nc2ccccc21
2. COCCCn1c([C@@H]2CCCN(C(=O)C[C@H](N)Cc3ccc(-c4ccc5c(c4)SCC(=O)N5)cc3)C2)nc2c(C)cccc21
3. COC(=O)[C@H](CC(C)C)NC(=O)N1CCCC(c2nc3ccccc3[nH]2)C1 (stereo partly drawn)
4. COCCCn1c([C@@H]2CCCN(C(=O)C[C@H](N)Cc3ccc(-c4ccc(C(=O)NCCOC)cc4)cc3)C2)nc2ccccc21

RESULT:
["6.00 to 7.00", "> 7.00", "< 6.00", "> 7.00"]

Numbers sourced from patent US8138168B1.
